- systemTested: T1, recombinant human CSF-1R (form not stated) (human, UniProt P07333 20-512, limits assumed)
- T1 construct: for the ELISA no species is stated; also called recombinant CSF-1R; recombinant CSF-1R protein
- T1 sequence (P07333 20-512 limits assumed): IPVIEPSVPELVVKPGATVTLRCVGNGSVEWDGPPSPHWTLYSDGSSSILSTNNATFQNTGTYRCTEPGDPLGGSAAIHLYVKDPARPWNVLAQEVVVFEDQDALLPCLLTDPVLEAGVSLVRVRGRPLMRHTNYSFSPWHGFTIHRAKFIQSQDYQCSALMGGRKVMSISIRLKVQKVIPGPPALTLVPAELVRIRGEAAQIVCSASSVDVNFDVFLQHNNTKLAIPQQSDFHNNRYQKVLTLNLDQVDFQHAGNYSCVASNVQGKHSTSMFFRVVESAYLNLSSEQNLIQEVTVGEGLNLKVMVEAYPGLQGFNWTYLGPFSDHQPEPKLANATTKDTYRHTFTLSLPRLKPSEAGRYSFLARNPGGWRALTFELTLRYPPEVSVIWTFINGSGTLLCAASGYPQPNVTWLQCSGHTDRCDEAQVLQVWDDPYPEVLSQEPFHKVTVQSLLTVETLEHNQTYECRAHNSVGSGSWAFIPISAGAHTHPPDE
- testProtocol: BIAcore, mean of 3 (fourth row, unlabelled)
Readings of koff for the listed binders
Answer format: value, then unit.

Please review the following examples before continuing.
q: Determine its reported koff: 969gH1gL1 (antibody, human IgG4 S228P, kappa, name in Kabat numbering, V domains shown, Humanised IgG4 (S241P)/kappa; positions are Kabat; also called Ab969.g1) VH: EVTLKESGPALVKPTQTLTLTCTFSGFSLTTYGMGVGWIRQPPGKALEWLANIWWDDDKYYNPSLKNRLTISKDTSKNQAVLTMTNMDPVDTATYYCARIGPIKYPTAPYRYFDFWGQGTMVTVSS VL: DIQMTQSPSSLSASVGDRVTITCLASEDIYDNLAWYQKKPGKAPKLLIYYASSLQDGVPSRFSGSGSGTDYTLTISSLQPEDFATYFCLQDSEYPWTFGGGTKVEIKR
a: 8.13e-06 s⁻¹

q: Determine its reported koff: chimeric antibody 969 (rat variable regions, human gamma-4 heavy chain constant region and human kappa chain constant region) (antibody, human IgG4, V domains shown, Alexa-488 label in the cell-based affinity assay; not carried by the letters., Full-length human IgG4 (S241P)/kappa chimeric; also called Ab969) VH: QVTLKESGPGILQPSQTLSLTCTFSGFSLTTYGMGVGWIRQPSGKGLEWLANIWWDDDKYYNPSLKNRLTISKDTSNNQAFLKLTNVHTSDSATYYCARIGPIKYPTAPYRYFDFWGPGTMVTVSS VL: DIQMTQSPASLSASLGETVSIECLASEDIYDNLAWYQKKPGKSPHLLIYYASSLQDGVPSRFSGSGSGTQYSLKINSLESEDAATYFCLQDSEYPWTFGGGTKLELKR
a: 1.03e-05 s⁻¹

q: Determine its reported koff: 969gH2gL4 (antibody, human IgG4 S228P, kappa, name in Kabat numbering, V domains shown, Humanised IgG4 (S241P)/kappa; positions are Kabat; also called Ab969.g7) VH: EVTLKESGPALVKPTQTLTLTCTFSGFSLTTYGMGVGWIRQPPGKALEWLANIWWDDDKYYNPSLKNRLTISKDTSKNQVVLTMTNMDPVDTATYYCARIGPIKYPTAPYRYFDFWGQGTMVTVSS VL: DIQMTQSPSSLSASVGDRVTITCLASEDIYDNLAWYQKKPGKAPKLLIYYASSLQDGVPSRFSGSGSGTDYTLTISSLQPEDFATYYCLQDSEYPWTFGGGTKVEIKR
a: 9.55e-06 s⁻¹

// next entry
q: Determine its reported koff: 969gH2gL8 (antibody, human IgG4 S228P, kappa, name in Kabat numbering, V domains shown, Humanised IgG4 (S241P)/kappa, no donor residues; position is Kabat; also called Ab969.g4) VH: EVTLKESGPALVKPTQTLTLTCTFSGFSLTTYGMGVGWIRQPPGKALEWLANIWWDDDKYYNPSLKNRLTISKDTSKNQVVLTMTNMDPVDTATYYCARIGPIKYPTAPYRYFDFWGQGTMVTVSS VL: DIQMTQSPSSLSASVGDRVTITCLASEDIYDNLAWYQQKPGKAPKLLIYYASSLQDGVPSRFSGSGSGTDFTLTISSLQPEDFATYYCLQDSEYPWTFGGGTKVEIKR
a: 5.55e-06 s⁻¹

All values here come from patent US20180162947A1.
